target: Histamine H1 receptor (Cavia porcellus) (UniProt P31389); assay: Histamine induced lethality, at 30-min pretreatment time of 3 mg/kg i.p. in guinea pigs.; format: functional, organism-based; parameters: dose 3 mg/kg; details: at 3 mg/kg
Sequence (P31389 whole entry): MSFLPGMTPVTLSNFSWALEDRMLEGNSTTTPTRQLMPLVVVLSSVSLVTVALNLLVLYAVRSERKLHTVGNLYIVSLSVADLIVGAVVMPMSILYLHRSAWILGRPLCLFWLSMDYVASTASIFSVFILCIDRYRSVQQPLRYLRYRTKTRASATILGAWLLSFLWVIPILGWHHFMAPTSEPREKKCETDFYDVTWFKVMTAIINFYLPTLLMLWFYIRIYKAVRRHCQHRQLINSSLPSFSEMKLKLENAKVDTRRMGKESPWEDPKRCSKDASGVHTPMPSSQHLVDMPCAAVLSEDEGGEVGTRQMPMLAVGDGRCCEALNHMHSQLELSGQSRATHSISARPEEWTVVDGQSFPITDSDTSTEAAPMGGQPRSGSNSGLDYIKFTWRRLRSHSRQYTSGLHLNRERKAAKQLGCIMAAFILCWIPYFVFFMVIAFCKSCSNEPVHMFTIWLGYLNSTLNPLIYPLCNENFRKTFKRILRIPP
reported-metric: Survival (%)
Answer format: numeric, % implied, no suffix.

Req: Under Histamine H1 receptor (Cavia porcellus) (UniProt P31389): Survival value of CN1CC(CC[N+](C)(C)C)Oc2ncccc2C1=S (stereo not drawn) ?
Resp: 0

Req: Under Histamine H1 receptor (Cavia porcellus) (UniProt P31389): Survival value of CN1CCN(CCC2CN(C)C(=S)c3cccnc3O2)CC1 (stereo not drawn) ?
Resp: 0

Req: Under Histamine H1 receptor (Cavia porcellus) (UniProt P31389): Survival value of CCCCN(CCCC)CCC1CN(C)C(=S)c2cccnc2O1 (stereo not drawn) ?
Resp: 33

Req: Under Histamine H1 receptor (Cavia porcellus) (UniProt P31389): Survival value of CN1CC(CCn2ccnc2)Oc2ncccc2C1=S (stereo not drawn) ?
Resp: 0

Req: Under Histamine H1 receptor (Cavia porcellus) (UniProt P31389): Survival value of CN1CC(CCN2CCOCC2)Oc2ncccc2C1=S (stereo not drawn) ?
Resp: 0

Req: Under Histamine H1 receptor (Cavia porcellus) (UniProt P31389): Survival value of CN(C)CCCC1CN(C)C(=O)c2cccnc2O1 (stereo not drawn) ?
Resp: 0

Req: Under Histamine H1 receptor (Cavia porcellus) (UniProt P31389): Survival value of CC(CC1CN(C)C(=O)c2cccnc2O1)N(C)C (stereo not drawn) ?
Resp: 0

Req: Under Histamine H1 receptor (Cavia porcellus) (UniProt P31389): Survival value of CN(C)CCC1CN(C)C(=O)c2cccnc2S1 (stereo not drawn) ?
Resp: 0

Req: Under Histamine H1 receptor (Cavia porcellus) (UniProt P31389): Survival value of CN(C)CCC1CN(C)C(=O)c2cc3ccccc3nc2O1 (stereo not drawn) ?
Resp: 100

Req: Under Histamine H1 receptor (Cavia porcellus) (UniProt P31389): Survival value of CN(C)CCC1CN(C)C(=O)c2cnccc2O1 (stereo not drawn) ?
Resp: 67

Req: Under Histamine H1 receptor (Cavia porcellus) (UniProt P31389): Survival value of CN(C)CCC1CN(C)C(=S)c2cnccc2O1 (stereo not drawn) ?
Resp: 100

Req: Under Histamine H1 receptor (Cavia porcellus) (UniProt P31389): Survival value of CC(CN(C)C)C1CN(C)C(=O)c2cccnc2O1 (stereo not drawn) ?
Resp: 0

Req: Under Histamine H1 receptor (Cavia porcellus) (UniProt P31389): Survival value of CN1CC(CCN2CCCCC2)Oc2ncccc2C1=S (stereo not drawn) ?
Resp: 0

Req: Under Histamine H1 receptor (Cavia porcellus) (UniProt P31389): Survival value of CN1CC(CCCN)Oc2ncccc2C1=O (stereo not drawn) ?
Resp: 0

Req: Under Histamine H1 receptor (Cavia porcellus) (UniProt P31389): Survival value of CN(C)CCCC1CN(C)C(=S)c2cccnc2O1 (stereo not drawn) ?
Resp: 33

Req: Under Histamine H1 receptor (Cavia porcellus) (UniProt P31389): Survival value of CN(C)CCC1CN(C)C(=O)c2cnc3cc(C(F)(F)F)ccc3c2O1 (stereo not drawn) ?
Resp: 0

Req: Under Histamine H1 receptor (Cavia porcellus) (UniProt P31389): Survival value of CN(C)CCC1CN(C)C(=S)c2cc3ccccc3cc2O1 (stereo not drawn) ?
Resp: 67

Req: Under Histamine H1 receptor (Cavia porcellus) (UniProt P31389): Survival value of CC(CN(C)C)C1CN(C)C(=S)c2cccnc2O1 (stereo not drawn) ?
Resp: 0
